Protocol Summary: NCI Yeast Anticancer Drug Screen. Data for the mec2-1 strain (AID 157)
Experimental Setup: S. cerevisiae mec2-1 strain, at 50.0 µM, active compounds read high
Compounds without any hit were thinned out: in the full panel of roughly 79,000, 15% have a hit.

{"columns": ["Molecule", "Unit String", "growth inhibition"],
 "data": [
  ["CCS1=C2C(=O)CC(C)(C)CC2=Nc2ccccc21 (configuration not stated)", "%", -0.15],
  ["N#CCCCCN1CCCCC1", "%", -20.9],
  ["CN(N=O)c1nc2c(C(N)=O)ncn2s1", "%", 16.4],
  ["O=C(CSc1nnc(-c2ccc(N=Cc3ccc(Cl)cc3)cc2)o1)Nc1ccc(Cl)cc1", "%", -41],
  ["CC1=CC(=O)C(C(O)(C(F)(F)F)C(F)(F)F)C(C)(C)C1 (configuration not stated)", "%", -38],
  ["CS(=O)(=O)OC1C(OC(=O)c2ccccc2)OC(COC(=O)c2ccccc2)C1OC(=O)c1ccccc1 (configuration not stated)", "%", -13.6],
  ["O=C(O)COc1ccccc1P(=O)(c1ccccc1)c1ccccc1", "%", 17.4],
  ["c1cn2cnnc2n2cnnc12", "%", -13],
  ["CCOC(=O)C1SC(=Nc2ccc(Cl)cc2Cl)N=C1C (configuration not stated)", "%", -10.3],
  ["O=C1NCCN1CCCl", "%", -1.25],
  ["COC(=O)C1C(=O)c2ccccc2C(C)C1c1ccccc1C (configuration not stated)", "%", 41.4],
  ["O=C(O)c1cc2cc(S(=O)(=O)O)ccc2cc1O", "%", -0.95]
]}

---

Protocol Summary: NCI Yeast Anticancer Drug Screen. Data for the cln2 rad14 strain (AID 165);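 also: 0% = growth equal to vehicle treated cultures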
Experimental Setup: S. cerevisiae cln2 rad14 strain, at 50.0 µM, active compounds read high
The panel holds about 79,000 compounds, 15% with a hit somewhere; the sample as a whole holds those more often. Calls of active or inactive are those of the source. Rule as the data show it: active = growth inhibition above about 70%; inactive = the rest.
Some molecules, each annotated with its measured growth inhibition.
Measured Endpoint: growth inhibition

{"columns": ["Molecule", "Measured Endpoint", "Observed Measurement"],
 "data": [
  ["O=C(CSc1nnc(-c2ccc(N=Cc3ccc(Cl)cc3)cc2)o1)Nc1ccc(Cl)cc1", "growth inhibition", "-66% (inactive)"],
  ["OCC(O)C(O)C(O)C(O)C(OCc1ccccc1)OCc1ccccc1 (stereo unspecified)", "growth inhibition", "-12.7% (inactive)"],
  ["COC(=O)Nc1ccc(C)cc1[N+](=O)[O-]", "growth inhibition", "-50.4% (inactive)"],
  ["c1cncc([O][Ge]([O]c2cccnc2)([O]c2cccnc2)[O]c2cccnc2)c1", "growth inhibition", "24.1% (inactive)"],
  ["C=C1CC(OC(=O)c2ccc([N+](=O)[O-])cc2)C1", "growth inhibition", "-8.65% (inactive)"],
  ["COC(=O)c1cc(-c2cccnc2)[nH]c(=O)c1C#N", "growth inhibition", "-15.7% (inactive)"]
]}

---

growth inhibition listing for selected compounds.
Protocol Summary: NCI Yeast Anticancer Drug Screen. Data for the sgs1 mgt1 strain (AID 161);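 also: 0% = growth of cultures given vehicle only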
Experimental Setup: S. cerevisiae sgs1 mgt1 strain, at 50.0 µM, active compounds read high
This is part of a sample that, as a whole, favours compounds with a hit. Of some 79,000 tested, about 15% had one in any assay. Activity calls are given as the source filed them. Rule as the data show it: active = growth inhibition above about 70%; inactive = the rest.

{"columns": ["Compound", "growth inhibition"],
 "data": [
  ["Nc1nc(Nc2ccccc2)nc(SCc2ccccc2)n1", "-5.5% (inactive)"],
  ["O=S1(=O)CC(N2CCCCC2)C=C(c2ccccc2)O1 (configuration not stated)", "14.3% (inactive)"],
  ["CC(=O)[CH-]C(=O)c1ccccc1.CC(=O)[CH-]C(=O)c1ccccc1.CC(C)CCCC(C)[C@H]1CCC2[C@@H]3CC=C4C[C@@H]([O-])CC[C@]4(C)C3CC[C@@]21C.CC[O-].[Ti+4] (some centres not stated)", "10.2% (inactive)"],
  ["COc1ccc(-c2nn(CCO)c(=O)c(C#N)c2-c2ccc(OC)cc2)cc1", "6.65% (inactive)"],
  ["C1CC2CCC1CN(C1COC(N3CC4CCC(CC4)C3)CO1)C2 (configuration not stated)", "9.7% (inactive)"],
  ["CC(C)=CC1C(C(=O)Oc2c(Cl)c(Cl)c(Cl)c(Cl)c2Cl)C1(C)C (configuration not stated)", "40.9% (inactive)"],
  ["O=S(=O)(CS(=O)(=O)Nc1ccccc1)Nc1ccccc1", "21.7% (inactive)"],
  ["COc1cccc2sc(-n3c(C)nc4ccccc4c3=O)nc12", "54.8% (inactive)"],
  ["Cc1ccc(S(=O)(=O)OC2CCC3(C)C(=CCC4C3CCC3(C)C(C(C)CCCC(C)C)CCC43)C2)cc1 (configuration not stated)", "49.8% (inactive)"],
  ["O=C1NC(=O)C(c2ccc(O)cc2)N1 (configuration not stated)", "-4.6% (inactive)"],
  ["C1=COC(C2NCCCN2)CC1 (configuration not stated)", "-2.6% (inactive)"],
  ["CCNc1ncc2nc(CC(=O)OC)c(=O)n(CC)c2n1", "4.75% (inactive)"],
  ["COc1ccccc1/C=C(\\S)C(=O)O", "-19.3% (inactive)"],
  ["CCOC(=O)CSc1ncnc2nc[nH]c12", "-6% (inactive)"],
  ["CC(=O)Nc1ccc(S(=O)(=O)NNC(=O)C(=O)Nc2cccc(Cl)c2)cc1", "-18.2% (inactive)"],
  ["C(=C(c1ccccc1)c1ccccc1)=C(c1ccccc1)c1ccccc1", "24.6% (inactive)"],
  ["Cc1nc(N)[nH]c(=O)c1CCCNC(=O)c1cccc([N+](=O)[O-])c1", "11.4% (inactive)"],
  ["CN1CCCC1", "-2.15% (inactive)"],
  ["O=C1OC(=O)c2c(Br)c(Br)c(Br)c(Br)c21", "-16.4% (inactive)"],
  ["CC(=O)NC1C(OC(C)C(=O)NC(C(=O)NC(CCC(=O)NCCCNC2c3ccccc3Nc3cccc([N+](=O)[O-])c32)C(N)=O)C(C)C)C(O)C(CO)OC1(C)OCc1ccccc1 (configuration not stated)", "4.3% (inactive)"],
  ["O=C(NCCc1c(-c2ccccc2)[nH]c2ccccc12)C1CCCCC1", "32.6% (inactive)"],
  ["COn1nnc2c([N+](=O)[O-])cccc21", "-3.15% (inactive)"]
]}
